Test system: Mus musculus
Assay: Antinociceptive activity against Kunming mouse model of thermal-induced nociception assessed as peripheral analgesia administered subcutaneously by tail-flick test
Type: functional
Settings: sc
Bridge positions count the residues as written; N and C are the ends. Square brackets hold non-standard residues; d marks the D form. Peptide text beside a SMILES is read from it. NMeF = CN[C@@H](Cc1ccccc1)C(=O)O; dOrn = NCCC[C@@H](N)C(=O)O; dDab = NCC[C@@H](N)C(=O)O
Listing of entries alongside the reported ED50.
Use µmol/kg as the unit, but write only the number.

Could you share which ED50 value was measured for C[C@@H](NC(=O)[C@@H](N)Cc1ccc(O)cc1)C(=O)NCC(=O)N(C)[C@@H](Cc1ccccc1)C(=O)NCC(=O)N1CCC[C@H]1C(=O)N[C@@H](CCC(N)=O)C(=O)N[C@@H](CCCNC(=N)N)C(=O)N[C@@H](Cc1ccccc1)C(N)=O (H-Y[dA]G[NMeF]GPQRF-NH2) ?
0.216

// query ED50 value for entry CN1C(=O)CNC(=O)[C@H](NC(=O)[C@@H](N)Cc2ccc(O)cc2)CCCNC(=O)C[C@@H](C(=O)N2CCC[C@H]2C(=O)N[C@@H](CCC(N)=O)C(=O)N[C@@H](CCCNC(=N)N)C(=O)N[C@@H](Cc2ccccc2)C(N)=O)NC(=O)[C@@H]1Cc1ccccc1 (H-Y[dOrn]G[NMeF]DPQRF-NH2; lactam 2-5)
0.0132

I would be grateful if you could share the reported ED50 for CN1C(=O)CNC(=O)[C@H](NC(=O)[C@@H](N)Cc2ccc(O)cc2)CCNC(=O)C[C@@H](C(=O)N2CCC[C@H]2C(=O)N[C@@H](CCC(N)=O)C(=O)N[C@@H](CCCNC(=N)N)C(=O)N[C@@H](Cc2ccccc2)C(N)=O)NC(=O)[C@@H]1Cc1ccccc1 (H-Y[dDab]G[NMeF]DPQRF-NH2; lactam 2-5) .
0.0142

So what does the record say about ED50 for CN1C(=O)CNC(=O)[C@@H](NC(=O)[C@@H](N)Cc2ccc(O)cc2)CCCCNC(=O)C[C@H](C(=O)N2CCC[C@H]2C(=O)N[C@@H](CCC(N)=O)C(=O)N[C@@H](CCCNC(=N)N)C(=O)N[C@@H](Cc2ccccc2)C(N)=O)NC(=O)[C@@H]1Cc1ccccc1 (H-YKG[NMeF][dD]PQRF-NH2; lactam 2-5) ?
0.0263

---

Assay: Apparent volume of distribution in Kunming mouse at 868.1 nmol/kg, iv measured up to 120 mins by LC-MS/MS analysis
Type: ADME, organism-based
Conditions: in vivo, read-out: Vd(app)
Bridge positions count the residues as written; N and C are the ends. Square brackets hold non-standard residues; d marks the D form. Peptide text beside a SMILES is read from it. NMeF = CN[C@@H](Cc1ccccc1)C(=O)O
quantity_kind: Vd (L/kg)
API: value field is a number in L/kg; no unit string.

For CN1C(=O)CNC(=O)[C@H](NC(=O)[C@@H](N)Cc2ccc(O)cc2)CCCCNC(=O)C[C@@H](C(=O)N2CCC[C@H]2C(=O)N[C@@H](CCC(N)=O)C(=O)N[C@@H](CCCNC(=N)N)C(=O)N[C@@H](Cc2ccccc2)C(N)=O)NC(=O)[C@@H]1Cc1ccccc1 (H-Y[dK]G[NMeF]DPQRF-NH2; lactam 2-5) , what is its reported Vd?
1.2
